Tested on: SaOS2
experimental details: cells
Parameters: species or system panel of human cancer cell lines; Eurofins OncoPanel proliferation; nuclei count by high-content fluorescence imaging, 10-point dose response
protocol conditions: Homo sapiens, SAOS-2, 72 h; cell count, curve inflection point, 3 days
assay metric: pEC50
On this scale, pEC50 is minus log10 of a concentration expressed in M (mol/L).

For the compound C[C@@H]1CC(=O)NN=C1c1ccc(NN=C(C#N)C#N)cc1 , give its measured pEC50 value.
4.26

---

Test system: RL95-2
experimental details: cells
Set-up: species or system panel of human cancer cell lines; Eurofins OncoPanel proliferation; nuclei count by high-content fluorescence imaging, 10-point dose response
protocol conditions: Homo sapiens, RL95-2, 72 h; cell count, curve inflection point, 3 days
assay metric: pEC50
On this scale, pEC50 is minus log10 of a concentration expressed in M (mol/L).

For the compound C[C@@H]1CC(=O)NN=C1c1ccc(NN=C(C#N)C#N)cc1 , give its measured pEC50 value.
4.72

Attribution: paper PMC6576746
